I'd be grateful if you could share measured protein stability index for these entries.
B1: ZNF449 (parent)
chain: RIHSGEEPHKCPECGKRFLRSSDL

Variants of: B1
Experiment: protein stability index of a GFP-peptide fusion (GPS, HEK-293T) (PSI 1-6); higher = more stable;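 note: lentivirally expressed fusions sorted by FACS into six bins by GFP to DsRed ratio, PSI derived from sequencing read proportions per bin multiplied by bin number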
Conditions: c terminus: a fixed tail appended
Numbers only.

{"columns": ["VARIANT NAME", "REPORTED"],
 "data": [
  ["P8D", 4.1],
  ["S22C", 3.94],
  ["H9D", 3.5],
  ["S21P", 2.86]
]}

Could you tell me protein stability index for each of these variants? They are listed below.
1. L19K
2. P12Q

## Output
4.04
3.33

Could you tell me protein stability index for each of these variants? They are listed below.
1. E6A
2. E6P

## Output
1. 3.24
2. 3.69

Could you tell me protein stability index for each of these variants? They are listed below.
1. L24G
2. S22W
3. P12R

## Output
1: 3.82; 2: 1.94; 3: 2.92

Could you tell me protein stability index for each of these variants? They are listed below.
1. R1D
2. F18P
3. C11A
4. L24H
5. E13N
6. R20D
7. R1T

## Output
[4.13, 3.83, 4.32, 3.63, 3.43, 3.47, 3.37]

Could you tell me protein stability index for each of these variants? They are listed below.
1. P8N
2. E7Q
3. C11L
4. P8Q
5. R17N
6. K10P
7. L24Y

## Output
1. 3
2. 3.26
3. 4.11
4. 4.29
5. 3.4
6. 3.7
7. 3.29

Could you tell me protein stability index for each of these variants? They are listed below.
1. R1L
2. E7P

## Output
[2.92, 2.95]

Could you tell me protein stability index for each of these variants? They are listed below.
1. C11K
2. P12C
3. H3E
4. R1Q
5. C11V
6. H9V

## Output
1. 4.5
2. 3.32
3. 3.48
4. 4.11
5. 4.19
6. 4.15

Could you tell me protein stability index for each of these variants? They are listed below.
1. C11R
2. L24W

## Output
4.32
2.93

Hey, just so you know, these numbers are from the supplement of paper PMC10567573.
